Test system: HS 578T breast
Assay: NCI-60 one-dose screen, 48 h
Conditions: 10 µM unless noted
About 83,000 compounds went through this panel and 20% of them were active in at least one assay; those are over-represented in the sample as a whole. Calls of active or inactive are those of the source. The calls were made as follows: active = growth percent below 10; inactive = the rest.
Labels: T (active), F (inactive)

molecule	class-name
C[C@H]1CCC/C=C/[C@@H]2C[C@H](O)C[C@H]2[C@H](O)/C=C/C(=O)O1	F
Cc1c(N)nc([C@H](CC(N)=O)NC[C@H](N)C(N)=O)nc1C(=O)N[C@H](C(=O)N[C@H](C)[C@@H](O)[C@H](C)C(=O)N[C@H](C(=O)NCCc1nc(-c2nc(C(=O)NCCC[S+](C)C)cs2)cs1)[C@@H](C)O)C(OC1OC(CO)C(O)C(O)C1OC1OC(CO)C(O)C(OC(N)=O)C1O)c1cnc[nH]1 (stereo partly specified)	T
COC1=C(C)C(=O)C2=C(C1=O)C(CO)N1C(C#N)C3CC4C(C1C2N1CCOC41)N3C (stereo unspecified)	T
CC1=C2C(=O)[C@H]3[C@@H](CC=C4C[C@@H](O)CC[C@@]43C)[C@@H]2CC[C@]12O[C@@H]1C[C@H](C)CN[C@H]1[C@H]2C	F
CC[C@@]1(O)C[C@H](OC2CC(N(C)C)C(O)C(C)O2)c2c(O)c3c(c(O)c2[C@H]1OC1CC(N(C)C)C(O)C(C)O1)C(=O)c1cccc(O)c1C3=O (stereo partly specified)	T
CN1CCN(c2ccc([N+](=O)[O-])c3no[n+]([O-])c23)CC1	T

The values you see were collected from PubChem BioAssay (NCI).
